# Tested on: PPARg:RXRa IVT, anti-PPARg (NR concentration 270 nM, RXRa partner concentration 90 nM)
# EXPERIMENTAL_PROTOCOL: PBM binding z-score (relative to random genomic background probes); higher = stronger binding; sequences stand for … in GC…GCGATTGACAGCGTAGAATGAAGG
Listed here are sequences together with their documented PBM binding z-score.
Give the figure by itself; no unit, no explanation.

Before answering, review these 2 worked examples.
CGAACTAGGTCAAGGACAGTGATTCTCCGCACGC | 8.3
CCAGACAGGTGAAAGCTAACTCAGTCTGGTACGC | 0.32

Provide only the value of recorded PBM binding z-score for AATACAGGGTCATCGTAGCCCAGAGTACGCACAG
5.25

Fill in PBM binding z-score for record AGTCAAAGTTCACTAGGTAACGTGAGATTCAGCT
4.98

Answer with the recorded PBM binding z-score of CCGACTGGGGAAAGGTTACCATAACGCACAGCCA only.
0.852
